Measured MPC8 LVFX by item
# System: Pseudomonas aeruginosa PAM 1723 strain highly expressing the drug efflux pump
# assay.explanation: Effect of combined use with antimicrobial agent (levofloxacin, aztreonam) on multidrug resistant Pseudomonas aeruginosa
# Assay type: cell-based
# setup.conditions: minimum concentration of test compound required to enhance antibacterial activity of levofloxacin applied at 1/8 or less of MIC, 18 hours, MHB
I only need the number, in µg/mL, no unit after it.

Consider the reported MPC8 LVFX for these compounds:
[
  {
    "compound": "CC(C)c1csc(/C=C/c2ccn3c(=O)c(/C=C/C(=O)O)c(OCC4CCOC4)nc3c2)n1 (stereo not shown)",
    "MPC8 LVFX, µg/mL": 4
  },
  {
    "compound": "CC(C)(C)c1csc(NC(=O)c2ccn3c(=O)c(/C=C/C(=O)O)c(N4CCC[C@@H](OC(N)=O)C4)nc3c2)n1",
    "MPC8 LVFX, µg/mL": 1
  },
  {
    "compound": "CC(C)c1csc(CCc2ccn3c(=O)c(/C=C/C(=O)[O-])c(N4CCN(C(=O)C[N+]56CCC(CC5)CC6)CC4)nc3c2)n1",
    "MPC8 LVFX, µg/mL": 16
  }
]

Data request: Lab note: need MPC8 LVFX for "CC(C)c1csc(CCc2ccn3c(=O)c(/C=C4/SC(=O)NC4=O)c(N4CCOCC4)nc3c2)n1" on Pseudomonas aeruginosa PAM 1723 strain highly expressing the drug efflux pump, anyone have it?
Data returned: 16

Data request: Lab note: need MPC8 LVFX for "CC(C)c1csc(CCc2ccn3c(=O)c(/C=C/C(=O)NS(C)(=O)=O)c(N4CCOCC4)nc3c2)n1" on Pseudomonas aeruginosa PAM 1723 strain highly expressing the drug efflux pump, anyone have it?
Data returned: 4

Data request: Lab note: need MPC8 LVFX for CC(C)c1csc(CCc2ccn3c(=O)c(/C=C/C(=O)O)c(N4CCCC(O)C4)nc3c2)n1 (stereo not shown) on Pseudomonas aeruginosa PAM 1723 strain highly expressing the drug efflux pump, anyone have it?
Data returned: 1

Data request: Lab note: need MPC8 LVFX for "CCn1cc(-c2nn[nH]n2)c(=O)c2ccc(/C=C/c3nc(C(C)C)cs3)nc21" on Pseudomonas aeruginosa PAM 1723 strain highly expressing the drug efflux pump, anyone have it?
Data returned: 2

* * *

Measured MPC8 AZT by item
# Test system: Pseudomonas aeruginosa PAM 1723 strain highly expressing the drug efflux pump
# assay.explanation: Effect of combined use with antimicrobial agent (levofloxacin, aztreonam) on multidrug resistant Pseudomonas aeruginosa
# Format: cell-based
# setup.conditions: minimum concentration of test compound required to enhance antibacterial activity of aztreonam at 1/8 or less of MIC, 18 hours, MHB
I only need the number, in µg/mL, no unit after it.

[
  {
    "compound": "CC(C)c1csc(COc2ccn3c(=O)c(/C=C/C(=O)O)c(N4CCCC(O)C4)nc3c2)n1 (centres unmarked)",
    "target.or.test.system": "Pseudomonas aeruginosa PAM 1723 strain highly expressing the drug efflux pump",
    "MPC8 AZT [µg/mL]": 8
  },
  {
    "compound": "CC(C)c1csc(CCc2ccn3c(=O)c(/C=C(\\F)C(=O)O)c(N4CCOCC4)nc3c2)n1",
    "target.or.test.system": "Pseudomonas aeruginosa PAM 1723 strain highly expressing the drug efflux pump",
    "MPC8 AZT [µg/mL]": 8
  },
  {
    "compound": "CCn1cc(-c2nn[nH]n2)c(=O)c2ccc(/C=C/c3nc(C(C)C)cs3)nc21",
    "target.or.test.system": "Pseudomonas aeruginosa PAM 1723 strain highly expressing the drug efflux pump",
    "MPC8 AZT [µg/mL]": 2
  },
  {
    "compound": "CC(C)c1csc(CCc2ccn3c(=O)c(/C=C4/SC(=O)NC4=O)c(N4CCOCC4)nc3c2)n1",
    "target.or.test.system": "Pseudomonas aeruginosa PAM 1723 strain highly expressing the drug efflux pump",
    "MPC8 AZT [µg/mL]": 2
  },
  {
    "compound": "CC(C)c1csc(/C=C/c2ccn3c(=O)c(/C=C/C(=O)O)c(OCC4CCOC4)nc3c2)n1 (centres unmarked)",
    "target.or.test.system": "Pseudomonas aeruginosa PAM 1723 strain highly expressing the drug efflux pump",
    "MPC8 AZT [µg/mL]": 4
  },
  {
    "compound": "CC(C)c1csc(/C=C/c2ccn3c(=O)c(/C=C/C(=O)O)c(N4CCN(C(=O)[C@@H](N)CCCNC(=N)N)CC4)nc3c2)n1",
    "target.or.test.system": "Pseudomonas aeruginosa PAM 1723 strain highly expressing the drug efflux pump",
    "MPC8 AZT [µg/mL]": 1
  }
]

Data request: Which MPC8 AZT value belongs to "CC(C)c1csc(CCc2ccn3c(=O)c(/C=C/C(=O)NS(C)(=O)=O)c(N4CCOCC4)nc3c2)n1" ?
Data returned: 4

Data request: Which MPC8 AZT value belongs to "CC(C)c1csc(CCc2ccn3c(=O)c(/C=C/C(=O)[O-])c(N4CCN(C(=O)C[N+]56CCC(CC5)CC6)CC4)nc3c2)n1" ?
Data returned: 16

Data request: Which MPC8 AZT value belongs to "CC(C)(C)c1csc(NC(=O)c2ccn3c(=O)c(/C=C/C(=O)O)c(N4CCC[C@@H](OC(N)=O)C4)nc3c2)n1" ?
Data returned: 0.5

Data request: Which MPC8 AZT value belongs to "CC(C)c1csc(CCc2ccn3c(=O)c(/C=C/C(=O)O)c(-c4ccncc4)nc3c2)n1" ?
Data returned: 8

Data request: Which MPC8 AZT value belongs to "CC(C)c1csc(CCc2ccn3c(=O)c(/C=C/C(=O)O)c(SCC(N)=O)nc3c2)n1" ?
Data returned: 4
